- experiment.description: Plasma protein binding
- Format: ADME, cell-free
- measurement.parameters: read-out: PPB
Please go through the items and note down their fraction unbound.
Just the number, please, no unit after it.

Look up fraction unbound: Cc1c(-c2ccc(NC(=O)c3c(F)cccc3Cl)cc2)cccc1-c1nn(C)c(=O)o1 0.01

// lookup fraction unbound for Cc1c(-c2ccc(NC(=O)c3c(F)cccc3F)cc2)cccc1-c1nn(C)c(=O)o1 0.01

====

- experiment.description: Half life in Lewis rat at 1 mg/kg, iv measured upto 24 hrs by LC-MS/MS analysis
- Format: ADME, organism-based
- measurement.parameters: in vivo
readout.name: half-life (h)
Write down the numeric answer in h and omit the unit.

Value lookup for half-life; key = Cc1ccc(-c2nn(C)c(=O)o2)cc1-c1ccc(NC(=O)c2c(F)cccc2F)cc1 7

Would you mind telling me what half-life value was observed for Cc1c(-c2ccc(NC(=O)c3c(F)cccc3Cl)cc2)cccc1-c1nn(C)c(=O)o1 ? 13

====

- experiment.description: Tmax in collagen-induced rheumatoid arthritis DBA/1J mouse model at 3 mg/kg, po administered twice daily for 15 days
- Format: ADME, organism-based
- measurement.parameters: in vivo, time 15 day
readout.name: Tmax (h)
Supply the numeric figure in h, leaving out any unit text.

Could you share which Tmax value was measured for Cc1c(-c2ccc(NC(=O)c3c(F)cccc3F)cc2)cccc1-c1nn(C)c(=O)o1 ? 1

====

- experiment.description: Cmax in Lewis rat at 1 mg/kg, iv measured upto 24 hrs by LC-MS/MS analysis
- Assay type: ADME, organism-based
- Parameters: route intravenous, dose 1 mg/kg, time <=24
- measurement.parameters: in vivo
readout.name: Cmax (µM)
Reply with just the number (in µM).

Given the compound Cc1c(-c2ccc(NC(=O)c3c(F)cccc3F)cc2)cccc1-c1nn(C)c(=O)o1 , what is its reported Cmax? 4

Value lookup for Cmax; key = Cc1ccc(-c2nn(C)c(=O)o2)cc1-c1ccc(NC(=O)c2c(F)cccc2F)cc1 4.4

Would you mind telling me what Cmax value was observed for Cc1c(-c2ccc(NC(=O)c3c(F)cccc3Cl)cc2)cccc1-c1nn(C)c(=O)o1 ? 5

====

- experiment.description: Half life in BALB/c mouse at 10 mg/kg, po measured upto 24 hrs by LC-MS/MS analysis
- Type: ADME, organism-based
- measurement.parameters: in vivo
What half-life was measured for each of the following?
Give a bare numeral; the unit h is implied.

Param item = Cc1c(-c2ccc(NC(=O)c3c(F)cccc3Cl)cc2)cccc1-c1nn(C)c(=O)o1 ; retrieve measured half-life. 6

# lookup: half-life of Cc1c(-c2ccc(NC(=O)c3c(F)cccc3F)cc2)cccc1-c1nn(C)c(=O)o1 5.3

====

- experiment.description: Cmax in rat at 60 mg/kg/day after 13 weeks
- Type: ADME, organism-based
- Parameters: time 13 weeks, dose 60 mg/kg/day
- measurement.parameters: in vivo
readout.name: Cmax (ng/mL)
Write the number in ng/mL without appending the unit.

Recorded Cmax for Cc1c(-c2ccc(NC(=O)c3c(F)cccc3F)cc2)cccc1-c1nn(C)c(=O)o1 , please? 4680

====

- experiment.description: Tmax in CFA-induced rheumatoid arthritis Lewis rat model at 3 mg/kg, po administered once daily for 15 days
- Format: ADME, organism-based
- measurement.parameters: in vivo, time 15 day
readout.name: Tmax
Write the numeric value and append its unit.

Given the entry Cc1c(-c2ccc(NC(=O)c3c(F)cccc3F)cc2)cccc1-c1nn(C)c(=O)o1 , report its measured Tmax. 4 h

====

- experiment.description: Tmax in BALB/c mouse at 1 mg/kg, iv measured upto 24 hrs by LC-MS/MS analysis
- Assay type: ADME, organism-based
- measurement.parameters: in vivo
Please respond with reported Tmax for every item in the list.
The answer is to be given in min; state only the numeric part.

Can you share its Tmax? I mean this compound: Cc1c(-c2ccc(NC(=O)c3c(F)cccc3Cl)cc2)cccc1-c1nn(C)c(=O)o1 4.8

# query: Tmax of entry Cc1c(-c2ccc(NC(=O)c3c(F)cccc3F)cc2)cccc1-c1nn(C)c(=O)o1 4.8

====

- experiment.description: Volume of distribution at steady state in Lewis rat at 1 mg/kg, iv measured upto 24 hrs by LC-MS/MS analysis
- Assay type: ADME, organism-based
- measurement.parameters: in vivo, read-out: Vdss
readout.name: Vd
Give the number first and the unit second.

For the compound shown here, Cc1ccc(-c2nn(C)c(=O)o2)cc1-c1ccc(NC(=O)c2c(F)cccc2F)cc1 , give the reported Vd. 0.7 L/kg

GET /values?readout=Vd&item= Cc1c(-c2ccc(NC(=O)c3c(F)cccc3F)cc2)cccc1-c1nn(C)c(=O)o1 1 L/kg

What value of Vd has been recorded for this entry: Cc1c(-c2ccc(NC(=O)c3c(F)cccc3Cl)cc2)cccc1-c1nn(C)c(=O)o1 1 L/kg

====

- experiment.description: Cmax in human whole blood at 80 mg, bid
- Assay type: ADME, tissue-based
- Set-up: dose 80 mg
readout.name: Cmax (nM)
# output: bare number, implied unit nM

Would you mind telling me what Cmax value was observed for Cc1c(-c2ccc(NC(=O)c3c(F)cccc3F)cc2)cccc1-c1nn(C)c(=O)o1 ? 1570

====

- experiment.description: Cmax in BALB/c mouse model of mBSA-induced delayed type hypersensitivity at 1 mg/kg, po administered twice daily for 7 days followed by mBSA challenge and measured after 24 hrs
- Assay type: ADME, organism-based
- Parameters: route oral, time 8 day, dose 1 mg/kg
- measurement.parameters: in vivo
readout.name: Cmax (nM)
Give your result in nM as a bare value.

Name the reported Cmax value associated with the compound Cc1c(-c2ccc(NC(=O)c3c(F)cccc3F)cc2)cccc1-c1nn(C)c(=O)o1 600

====

- experiment.description: Tmax in collagen-induced rheumatoid arthritis DBA/1J mouse model at 3 mg/kg, po administered twice daily for 15 days in presence of 0.75 mg/kg of methotrexate
- Type: ADME, organism-based
- measurement.parameters: in vivo, time 15 day
readout.name: Tmax (h)
// return numeric value only (unit: h, not printed)

Need Tmax of Cc1c(-c2ccc(NC(=O)c3c(F)cccc3F)cc2)cccc1-c1nn(C)c(=O)o1 , thanks. 2

====

- experiment.description: in vivo
- measurement.parameters: DBA/1J, mouse, po, 0.75 mg/kg
- Description: Cmax in collagen-induced rheumatoid arthritis DBA/1J mouse model at 0.75 mg/kg, po administered once daily for 15 days
readout.name: Cmax at 360 h (nM)
Just the number please, in nM, no unit attached.

I am curious: what Cmax at 360 h value has been reported for CN(Cc1cnc2nc(N)nc(N)c2n1)c1ccc(C(=O)N[C@@H](CCC(=O)O)C(=O)O)cc1 [METHOTREXATE] ? 100

====

- target.or.test.system: ORAI1/STIM1 (Homo sapiens, UniProt Q13586+Q96D31)
- Sequence (Q96D31 whole entry): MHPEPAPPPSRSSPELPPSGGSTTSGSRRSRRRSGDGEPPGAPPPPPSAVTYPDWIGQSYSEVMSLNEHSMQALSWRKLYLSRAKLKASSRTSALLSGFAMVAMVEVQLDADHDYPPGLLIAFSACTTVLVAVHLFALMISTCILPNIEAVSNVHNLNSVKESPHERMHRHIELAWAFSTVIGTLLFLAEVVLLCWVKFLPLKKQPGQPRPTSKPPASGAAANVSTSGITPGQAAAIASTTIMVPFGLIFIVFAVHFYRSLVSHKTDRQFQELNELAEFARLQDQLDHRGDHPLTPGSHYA
- Sequence (Q13586 whole entry): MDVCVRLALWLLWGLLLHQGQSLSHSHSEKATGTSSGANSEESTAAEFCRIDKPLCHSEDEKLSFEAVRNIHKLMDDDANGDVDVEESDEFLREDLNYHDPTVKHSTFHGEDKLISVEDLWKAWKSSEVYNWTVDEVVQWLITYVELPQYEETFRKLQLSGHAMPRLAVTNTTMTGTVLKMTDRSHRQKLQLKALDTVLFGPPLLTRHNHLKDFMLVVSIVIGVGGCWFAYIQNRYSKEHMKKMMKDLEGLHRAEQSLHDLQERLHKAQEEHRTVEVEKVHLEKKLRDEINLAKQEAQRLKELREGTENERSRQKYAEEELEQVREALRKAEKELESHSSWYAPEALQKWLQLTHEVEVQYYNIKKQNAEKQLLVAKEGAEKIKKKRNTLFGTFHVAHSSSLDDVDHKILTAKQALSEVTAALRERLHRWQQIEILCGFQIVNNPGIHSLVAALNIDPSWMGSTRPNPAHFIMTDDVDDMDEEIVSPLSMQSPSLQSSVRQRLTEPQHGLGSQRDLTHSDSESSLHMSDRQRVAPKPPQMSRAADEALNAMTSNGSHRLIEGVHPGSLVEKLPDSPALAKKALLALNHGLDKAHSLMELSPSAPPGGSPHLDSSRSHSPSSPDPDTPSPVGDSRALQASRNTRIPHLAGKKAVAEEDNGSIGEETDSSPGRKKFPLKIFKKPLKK
- experiment.description: Inhibition of Orai1/STIM1 (unknown origin)
- Assay type: protein-complex assay
readout.name: IC50 (nM)
Answer format: numeric, nM implied, no suffix.

Entry Cc1cccc(F)c1C(=O)Nc1cnc(-c2cc3c(cc2Cl)OC(F)(F)O3)cn1 [ZEGOCRACTIN] has what IC50? 119

====

Could you please report measured half-life for the items listed next?
- experiment.description: Half life in Lewis rat at 10 mg/kg, po measured upto 24 hrs by LC-MS/MS analysis
- Format: ADME, organism-based
- measurement.parameters: in vivo
Give just the numeric value; h need not be written.

Quick check: half-life of Cc1ccc(-c2nn(C)c(=O)o2)cc1-c1ccc(NC(=O)c2c(F)cccc2F)cc1 ? 15.2

Consider the compound shown here: Cc1c(-c2ccc(NC(=O)c3c(F)cccc3Cl)cc2)cccc1-c1nn(C)c(=O)o1 What is its recorded half-life? 16

====

- experiment.description: AUC(0 to t) in rat at 60 mg/kg/day after 2 weeks
- Format: ADME, organism-based
- Design: dose 60 mg/kg/day, time 2 weeks
- measurement.parameters: in vivo
readout.name: AUC(0-t) at 336 h

// query AUC(0-t) at 336 h value for entry Cc1c(-c2ccc(NC(=O)c3c(F)cccc3F)cc2)cccc1-c1nn(C)c(=O)o1 76700 ng·h/mL

====

- experiment.description: AUClast in collagen-induced rheumatoid arthritis DBA/1J mouse model at 3 mg/kg, po administered twice daily for 15 days
- Assay type: ADME, organism-based
- Design: route oral, dose 3 mg/kg, time 15 day
- measurement.parameters: in vivo
readout.name: AUC(0-t) at 360 h (µM·h)
Report the value in µM·h with no unit label.

Reported AUC(0-t) at 360 h for Cc1c(-c2ccc(NC(=O)c3c(F)cccc3F)cc2)cccc1-c1nn(C)c(=O)o1 : what is it? 12

====

- experiment.description: AUC(0 to t) in human at […] measured on day 14
- Type: ADME, organism-based
- Parameters: time 14 day
- measurement.parameters: in vivo
readout.name: AUC(0-t) at 336 h (ng·h/mL)
Please give a number only; it is taken to be in ng·h/mL.

// AUC(0-t) at 336 h lookup, key: Cc1c(-c2ccc(NC(=O)c3c(F)cccc3F)cc2)cccc1-c1nn(C)c(=O)o1 7050

Source: ChEMBL document CHEMBL4831556
